- test_system: full-length beta-catenin (Axin site) (Homo sapiens, UniProt P35222)
- Construct: 15 nM full-length beta-catenin, 20 nM FITC labeled peptide in buffer
- experiment_description: Competition fluorescence polarization assay (Axin site probe)
- Type: binding
- applied_conditions: competition fluorescence polarization, Table 2; read-out: in vitro FP EC50
measured_attribute: EC50

For orientation, consider the following solved cases.
CC[C@H](C)[C@@H]1NC(=O)[C@H](Cc2c[nH]cn2)NC(=O)[C@H](C)NC(=O)[C@H](CC(=O)O)NC(=O)[C@H](CC(C)C)NC(=O)[C@H]([C@@H](C)CC)NC(=O)[C@](C)(NC(=O)[C@H](C)NC(C)=O)CCCCCC=CCOC(=O)N(C)CC[C@@](C)(C(=O)N[C@@H](CCCNC(=N)N)C(=O)N[C@H](C(=O)N[C@@H](Cc2c[nH]c3ccccc23)C(N)=O)C(C)C)NC1=O [FP0503c, Ac-A-R7-I-L-D-A-H-I-MF-R-V-W-NH2]: 100 to 500 nM
CC[C@H](C)[C@@H]1NC(=O)[C@H](Cc2c[nH]cn2)NC(=O)[C@H](C)NC(=O)[C@H](CC(=O)O)NC(=O)[C@H](CC(C)C)NC(=O)[C@H]([C@@H](C)CC)NC(=O)[C@](C)(NC(=O)[C@H](C)NC(C)=O)CCCCCC=CCOC(=O)N2CC(C(=O)N[C@@H](CCCNC(=N)N)C(=O)N[C@H](C(=O)N[C@@H](Cc3c[nH]c4ccccc34)C(N)=O)C(C)C)(C2)NC1=O [FP0516c, Ac-A-R7-I-L-D-A-H-I-MA-R-V-W-NH2]: 100 to 500 nM

Could you now consider this next compound?
Asked: Could you share what EC50 was measured for CC[C@H](C)[C@@H]1NC(=O)[C@](C)(NC(=O)[C@H](CCC(N)=O)NC(=O)[C@@H]2CCCN2C(C)=O)CCCC=CCOC(=O)N2CC(C(=O)N[C@@H](Cc3c[nH]cn3)C(=O)N[C@H](C(=O)N[C@@H](CCCNC(=N)N)C(=O)N[C@@H](CCCNC(=N)N)C(=O)N[C@H](C(=O)N[C@@H](Cc3c[nH]c4ccccc34)C(=O)N[C@@H](CCCNC(=N)N)C(N)=O)C(C)C)C(C)C)(C2)NC(=O)[C@H](CC(=O)O)NC(=O)[C@H](CC(C)C)NC1=O (single isomer, unassigned) [FP0733c, Ac-P-Q-R5-I-L-D-MA-H-V-R-R-V-W-R-NH2] , tested on full-length beta-catenin (Axin site) (Homo sapiens, UniProt P35222)?
Given back: 500 to 5000 nM

====

- test_system: full-length beta-catenin (Axin site) (Homo sapiens, UniProt P35222)
- Construct: 15 nM full-length beta-catenin, 20 nM FITC labeled peptide in buffer
- Sequence (P35222 1-781): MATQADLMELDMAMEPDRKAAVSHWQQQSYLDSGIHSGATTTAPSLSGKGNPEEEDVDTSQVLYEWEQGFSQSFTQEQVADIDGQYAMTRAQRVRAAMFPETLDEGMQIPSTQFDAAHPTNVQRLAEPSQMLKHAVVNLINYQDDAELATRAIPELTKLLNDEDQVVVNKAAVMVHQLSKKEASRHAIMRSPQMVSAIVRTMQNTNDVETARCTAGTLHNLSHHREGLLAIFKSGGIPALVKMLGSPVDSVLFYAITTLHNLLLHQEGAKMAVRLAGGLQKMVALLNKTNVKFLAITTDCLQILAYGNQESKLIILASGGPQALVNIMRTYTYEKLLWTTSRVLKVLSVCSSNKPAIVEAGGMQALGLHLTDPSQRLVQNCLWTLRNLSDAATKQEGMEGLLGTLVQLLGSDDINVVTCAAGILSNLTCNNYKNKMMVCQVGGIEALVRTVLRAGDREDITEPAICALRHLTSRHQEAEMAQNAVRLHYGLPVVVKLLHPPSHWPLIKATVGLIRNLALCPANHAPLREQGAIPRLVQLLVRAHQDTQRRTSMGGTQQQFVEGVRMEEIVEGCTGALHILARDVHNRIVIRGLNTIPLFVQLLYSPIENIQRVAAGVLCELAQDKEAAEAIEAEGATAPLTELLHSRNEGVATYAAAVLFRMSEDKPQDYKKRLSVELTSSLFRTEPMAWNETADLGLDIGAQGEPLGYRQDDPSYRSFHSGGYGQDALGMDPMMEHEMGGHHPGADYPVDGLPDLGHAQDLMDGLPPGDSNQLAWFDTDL
- experiment_description: Competition fluorescence polarization assay (Axin site probe)
- Format: binding
- applied_conditions: competition fluorescence polarization, Table 2; read-out: in vitro FP EC50
measured_attribute: EC50

CC[C@H](C)[C@@H]1NC(=O)[C@H](Cc2c[nH]cn2)NC(=O)[C@H](C)NC(=O)[C@H](CC(=O)O)NC(=O)[C@H](CC(C)C)NC(=O)[C@H]([C@@H](C)CC)NC(=O)[C@](C)(NC(=O)[C@H](C)NC(C)=O)CCCCCC=CCN2CC(C(=O)N[C@@H](CCCNC(=N)N)C(=O)N[C@H](C(=O)N[C@@H](Cc3c[nH]c4ccccc34)C(N)=O)C(C)C)(C2)NC1=O (single isomer, unassigned) [FP0516a Isomer 1, Ac-A-R7-I-L-D-A-H-I-MA-R-V-W-NH2]: 100 to 500 nM
CC[C@H](C)[C@@H]1NC(=O)[C@H](Cc2c[nH]cn2)NC(=O)[C@H](C)NC(=O)[C@H](CC(=O)O)NC(=O)[C@H](CC(C)C)NC(=O)[C@H]([C@@H](C)CC)NC(=O)[C@](C)(NC(=O)[C@H](C)NC(C)=O)CCCCCCC=CCOC(=O)N2CC[C@@](C(=O)N[C@@H](Cc3cccc4ccccc34)C(=O)N[C@H](C(=O)N[C@@H](Cc3c[nH]c4ccccc34)C(N)=O)C(C)C)(C2)NC1=O (single isomer, unassigned) [FP0365c Isomer 2, Ac-A-R8-I-L-D-A-H-I-MB-1NapA-V-W-NH2]: 500 to 5000 nM

Asked: Could you share what EC50 was measured for CC[C@H](C)[C@@H]1NC(=O)[C@](C)(NC(=O)[C@H](CCC(N)=O)NC(=O)[C@@H]2CCCN2C(C)=O)CCCN(C)CC=CCCC[C@](C)(C(=O)N[C@@H](Cc2c[nH]cn2)C(=O)N[C@H](C(=O)N[C@@H](CCCNC(=N)N)C(=O)N[C@@H](CCCNC(=N)N)C(=O)N[C@H](C(=O)N[C@@H](Cc2c[nH]c3ccccc23)C(=O)N[C@@H](CCCNC(=N)N)C(N)=O)C(C)C)C(C)C)NC(=O)[C@H](CC(=O)O)NC(=O)[C@H](CC(C)C)NC1=O (single isomer, unassigned) [FP0783a, Ac-P-Q-MI-I-L-D-R5-H-V-R-R-V-W-R-NH2] , tested on full-length beta-catenin (Axin site) (Homo sapiens, UniProt P35222)?
Given back: 500 to 5000 nM

Asked: Please give the result for CC[C@H](C)[C@@H]1NC(=O)[C@H](Cc2ccccn2)NC(=O)[C@H](C)NC(=O)[C@H](CC(=O)O)NC(=O)[C@H](CC(C)C)NC(=O)[C@H]([C@@H](C)CC)NC(=O)[C@](C)(NC(=O)[C@H](C)NC(C)=O)CCCCCCC=CCOC(=O)N2CC[C@@](C(=O)N[C@@H](C)C(=O)N[C@H](C(=O)N[C@@H](Cc3c[nH]c4ccccc34)C(N)=O)C(C)C)(C2)NC1=O (single isomer, unassigned) [FP0554c Isomer 2, Ac-A-R8-I-L-D-A-2pyr-I-MB-A-V-W-NH2] too.
Given back: > 5000 nM

Asked: Please give the result for CC[C@H](C)[C@@H]1NC(=O)[C@H](Cc2c[nH]cn2)NC(=O)[C@H](C)NC(=O)[C@H](CC(=O)O)NC(=O)[C@H](CC(C)C)NC(=O)[C@H]([C@@H](C)CC)NC(=O)[C@](C)(NC(=O)[C@H](C)NC(C)=O)CCCCCCC=CCOC(=O)N2CC[C@@](C(=O)N[C@@H](CCCCN)C(=O)N[C@H](C(=O)N[C@@H](Cc3c[nH]c4ccccc34)C(N)=O)C(C)C)(C2)NC1=O [FP0635c, Ac-A-R8-I-L-D-A-H-I-MB-K-V-W-NH2] too.
Given back: 100 to 500 nM

Asked: Please give the result for CC[C@H](C)[C@@H]1NC(=O)[C@H](Cc2ccccn2)NC(=O)[C@H](C)NC(=O)[C@H](CC(=O)O)NC(=O)[C@H](CC(C)C)NC(=O)[C@H]([C@@H](C)CC)NC(=O)[C@](C)(NC(=O)[C@H](C)NC(C)=O)CCCCCCC=CCOC(=O)N2CC[C@@](C(=O)N[C@@H](Cc3ccc(OC)cc3)C(=O)N[C@H](C(=O)N[C@@H](Cc3c[nH]c4ccccc34)C(N)=O)C(C)C)(C2)NC1=O (single isomer, unassigned) [FP0575c Isomer 2, Ac-A-R8-I-L-D-A-2pyr-I-MB-MeY-V-W-NH2] too.
Given back: > 5000 nM

Asked: Please give the result for CC[C@H](C)[C@@H]1NC(=O)[C@@](C)(NC(=O)[C@H](CCC(N)=O)NC(=O)[C@@H]2CCCN2C(C)=O)CCN(C)C(=O)OCC=CCCC[C@@](C)(C(=O)N[C@@H](Cc2c[nH]cn2)C(=O)N[C@H](C(=O)N[C@@H](CCCNC(=N)N)C(=O)N[C@@H](CCCNC(=N)N)C(=O)N[C@H](C(=O)N[C@@H](Cc2c[nH]c3ccccc23)C(=O)N[C@@H](CCCNC(=N)N)C(N)=O)C(C)C)C(C)C)NC(=O)[C@H](CC(=O)O)NC(=O)[C@H](CC(C)C)NC1=O (single isomer, unassigned) [FP0779c, Ac-P-Q-MF-I-L-D-S5-H-V-R-R-V-W-R-NH2] too.
Given back: 500 to 5000 nM

Asked: Please give the result for CC[C@H](C)[C@@H]1NC(=O)[C@@](C)(NC(=O)[C@H](CCC(N)=O)NC(=O)[C@@H]2CCCN2C(C)=O)CCCCC=CCN2CC(C(=O)N[C@@H](Cc3c[nH]cn3)C(=O)N[C@H](C(=O)N[C@@H](CCCNC(=N)N)C(=O)N[C@@H](CCCNC(=N)N)C(=O)N[C@H](C(=O)N[C@@H](Cc3c[nH]c4ccccc34)C(=O)N[C@@H](CCCNC(=N)N)C(N)=O)C(C)C)C(C)C)(C2)NC(=O)[C@H](CC(=O)O)NC(=O)[C@H](CC(C)C)NC1=O (single isomer, unassigned) [FP0736a, Ac-P-Q-S6-I-L-D-MA-H-V-R-R-V-W-R-NH2] too.
Given back: 100 to 500 nM

Ref: patent US11198713B2
